Data origin: the supplement of paper PMC10567573

B1: PBXIP1 (parent)
chain: FGEDGIFRHDRLRFRDFVDALEDS

Variants of: B1
Experiment: protein stability index of a GFP-peptide fusion (GPS, HEK-293T) (PSI 1-6); higher = more stable;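 also: lentivirally expressed fusions sorted by FACS into six bins by GFP to DsRed ratio, PSI derived from sequencing read proportions per bin multiplied by bin number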
Conditions: c terminus: a fixed tail appended
assayMetric: protein stability index
Numbers only.

INSERT INTO measurements (sequencevariant, observedresult) VALUES
  ('R11G', 3.12),
  ('E3C', 2.17),
  ('D16W', 1.85),
  ('S24E', 2.24);

Batch of 4 variants: report protein stability index for each.
1. R8V
2. V18E
3. G2Y
4. E3N

2.93
3.5
3.09
1.99

Given the entry R13Q , report its measured protein stability index.
3.74
